The entries below come with measured DR/DR LNA values attached.
ASSAY TEXT: Probe fluorescence ratio response to linolenic acid relative to ADIFAB2
Type: binding
MEASUREMENT PARAMETERS: response relative to ADIFAB2
PROPERTY NAME: DR/DR LNA

[
  {
    "MOLECULE": "14T, 72A (protein, listed as Rattus norvegicus, PEPTIDE (1)...(131) wild-type rat intestinal fatty acid binding protein) AFDGTWKVDRNENTEKFMEKMGINVVKRKLGAHDNLKLTITQEGNKFTVKESSNFRNIDVVFELGVDFAYSAADGTELTGTWTMEGNKLVGKFKRVDNGKELIAVREISGNELIQTYTYEGVEAKRIFKKE",
    "MEAS VALUE": 1.15
  },
  {
    "MOLECULE": "119T, 72A (protein, listed as Rattus norvegicus, PEPTIDE (1)...(131) wild-type rat intestinal fatty acid binding protein) AFDGTWKVDRNENYEKFMEKMGINVVKRKLGAHDNLKLTITQEGNKFTVKESSNFRNIDVVFELGVDFAYSAADGTELTGTWTMEGNKLVGKFKRVDNGKELIAVREISGNELIQTYTTEGVEAKRIFKKE",
    "MEAS VALUE": 1.21
  },
  {
    "MOLECULE": "73T 72A 74F (protein, listed as Rattus norvegicus, PEPTIDE (1)...(131) wild-type rat intestinal fatty acid binding protein) AFDGTWKVDRNENYEKFMEKMGINVVKRKLGAHDNLKLTITQEGNKFTVKESSNFRNIDVVFELGVDFAYSATFGTELTGTWTMEGNKLVGKFKRVDNGKELIAVREISGNELIQTYTYEGVEAKRIFKKE",
    "MEAS VALUE": 1.661
  },
  {
    "MOLECULE": "17D, 72A (protein, listed as Rattus norvegicus, PEPTIDE (1)...(131) wild-type rat intestinal fatty acid binding protein) AFDGTWKVDRNENYEKDMEKMGINVVKRKLGAHDNLKLTITQEGNKFTVKESSNFRNIDVVFELGVDFAYSAADGTELTGTWTMEGNKLVGKFKRVDNGKELIAVREISGNELIQTYTYEGVEAKRIFKKE",
    "MEAS VALUE": 0.34
  },
  {
    "MOLECULE": "126L, 72A (protein, listed as Rattus norvegicus, PEPTIDE (1)...(131) wild-type rat intestinal fatty acid binding protein) AFDGTWKVDRNENYEKFMEKMGINVVKRKLGAHDNLKLTITQEGNKFTVKESSNFRNIDVVFELGVDFAYSAADGTELTGTWTMEGNKLVGKFKRVDNGKELIAVREISGNELIQTYTYEGVEAKLIFKKE",
    "MEAS VALUE": 0.66
  },
  {
    "MOLECULE": "72R (protein, listed as Rattus norvegicus, PEPTIDE (1)...(131) wild-type rat intestinal fatty acid binding protein) AFDGTWKVDRNENYEKFMEKMGINVVKRKLGAHDNLKLTITQEGNKFTVKESSNFRNIDVVFELGVDFAYSRADGTELTGTWTMEGNKLVGKFKRVDNGKELIAVREISGNELIQTYTYEGVEAKRIFKKE",
    "MEAS VALUE": 0.49
  }
]
